Recorded measurements of selectivity ratio hD1, one per entry
- MEASUREMENT TARGET: human dopamine D1 (Homo sapiens)
- Construct: purchased BioSignal, Inc. (Montreal, Canada); host or cells: membranes of cells expressing the receptor
- Sequence (P21728 whole entry): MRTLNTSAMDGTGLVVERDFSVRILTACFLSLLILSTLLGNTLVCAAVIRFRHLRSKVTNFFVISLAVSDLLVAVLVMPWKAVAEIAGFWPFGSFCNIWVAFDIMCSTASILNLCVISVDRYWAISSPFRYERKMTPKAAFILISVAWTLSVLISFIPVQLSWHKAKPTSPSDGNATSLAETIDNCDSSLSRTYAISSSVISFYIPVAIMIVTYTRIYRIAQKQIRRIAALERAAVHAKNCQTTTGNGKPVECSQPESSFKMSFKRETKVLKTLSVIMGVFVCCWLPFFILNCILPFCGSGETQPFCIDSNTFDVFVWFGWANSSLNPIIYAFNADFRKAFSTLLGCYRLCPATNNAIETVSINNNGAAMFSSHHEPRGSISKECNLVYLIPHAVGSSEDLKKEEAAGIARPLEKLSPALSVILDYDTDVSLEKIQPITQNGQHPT
- PROTOCOL DETAILS: Radioligand binding, dopamine D1 receptor
- CONDITIONS USED: Table 10; Ki hD1 divided by Ki hGAL3

Lookup: Endpoint output: selectivity ratio hD1 of O=C1C(=Nc2cccc(Cl)c2)c2ccccc2N1c1ccccc1 [Example 94] . Value?
Found: >30

Lookup: Can you share its selectivity ratio hD1? I mean this compound: O=C1C(=Nc2ccc(C(F)(F)F)cc2)c2ccccc2N1c1ccccc1 [Example 95]
Found: >100

Lookup: Fill in: selectivity ratio hD1 of O=C1C(=Nc2ccc(Br)cc2)c2ccccc2N1c1ccccc1 [Example 98] is ___
Found: >30

* * *

Items are presented alongside their recorded selectivity ratio h5HT2A.
- MEASUREMENT TARGET: Human 5HT2A Receptor (Homo sapiens, UniProt P28223)
- Construct: expressed in transfected cells; host or cells: COS-7 cells (pCEXV-3 vector, DEAE-dextran)
- Sequence (P28223 whole entry): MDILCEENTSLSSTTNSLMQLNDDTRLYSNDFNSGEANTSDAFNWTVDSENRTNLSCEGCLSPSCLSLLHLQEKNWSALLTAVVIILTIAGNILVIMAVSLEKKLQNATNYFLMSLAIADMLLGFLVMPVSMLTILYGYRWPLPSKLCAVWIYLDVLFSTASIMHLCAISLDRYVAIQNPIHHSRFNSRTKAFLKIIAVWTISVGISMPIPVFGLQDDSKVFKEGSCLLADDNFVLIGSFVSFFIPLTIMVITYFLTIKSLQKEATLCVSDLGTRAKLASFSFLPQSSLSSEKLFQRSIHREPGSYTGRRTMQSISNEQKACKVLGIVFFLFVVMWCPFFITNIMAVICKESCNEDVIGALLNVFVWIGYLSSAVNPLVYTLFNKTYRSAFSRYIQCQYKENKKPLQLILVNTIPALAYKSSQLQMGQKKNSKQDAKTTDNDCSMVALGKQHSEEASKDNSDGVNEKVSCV
- PROTOCOL DETAILS: Radioligand binding, 5HT2A receptor ([3H]ketanserin)
- CONDITIONS USED: Table 8; Ki h5HT2A divided by Ki hGAL3

// below: answered molecules
CN(CCc1c[nH]c2ccccc12)c1nc(Nc2ccc(F)c(F)c2)cc(N2CCCCC2)n1 ... >100
O=C1C(=Nc2cccc(C(F)(F)F)c2)c2ccccc2N1c1ccccc1 ... >100
O=C1C(=Nc2ccc(Cl)cc2)c2ccccc2N1c1ccccc1 ... >100
COc1cccc(Nc2cc(N3CCCCC3)nc(N(C)CCc3c[nH]c4ccccc34)n2)c1 ... >30
Cc1ccc(Nc2cc(N3CCCCC3)nc(N3CCN(c4ncccc4C(F)(F)F)CC3)n2)cc1 ... >100

Kindly consider the entry below.
Lookup: // lookup selectivity ratio h5HT2A for Cc1ccc(Nc2cc(N(C)C)nc(N(C)CCc3c[nH]c4ccccc34)n2)cc1
Found: 28

* * *

compounds and their reported Ki
- MEASUREMENT TARGET: human GAL1 receptor (Homo sapiens, UniProt P47211)
- Construct: expressed in transfected cells
- Sequence (P47211 whole entry): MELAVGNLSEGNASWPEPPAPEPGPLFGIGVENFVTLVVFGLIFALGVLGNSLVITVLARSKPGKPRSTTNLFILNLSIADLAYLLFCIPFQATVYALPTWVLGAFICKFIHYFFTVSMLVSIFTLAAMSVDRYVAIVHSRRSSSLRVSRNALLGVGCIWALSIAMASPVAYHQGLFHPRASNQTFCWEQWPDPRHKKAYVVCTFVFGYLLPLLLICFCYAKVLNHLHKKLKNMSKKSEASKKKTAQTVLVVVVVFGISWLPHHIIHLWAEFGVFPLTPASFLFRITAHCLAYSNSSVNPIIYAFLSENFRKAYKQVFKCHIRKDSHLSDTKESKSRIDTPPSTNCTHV
- PROTOCOL DETAILS: Radioligand binding at cloned human GAL1 receptor
- CONDITIONS USED: pyrimidines, read-out: Ki GalR1

Cc1cc(Nc2cc(N(C)C)nc(Nc3ccccc3)n2)ccc1Cl [Example 61] ... > 5 µM

Lookup: Recorded Ki of Cc1ccc(Nc2cc(N(C)C)nc(Nc3ccccc3)n2)cc1Cl [Example 62] , please.
Found: > 5 µM

Lookup: Sample Cc1ccc(Nc2cc(N3CCCCC3)nc(N3CCN(c4ccccc4)CC3)n2)cc1 [Example 25] — what was its Ki?
Found: > 5 µM

* * *

selectivity ratio h5HT4 values for the molecules below.
- MEASUREMENT TARGET: human 5HT4 receptor (Homo sapiens)
- Construct: expressed in transfected cells
- Sequence (Q13639 whole entry): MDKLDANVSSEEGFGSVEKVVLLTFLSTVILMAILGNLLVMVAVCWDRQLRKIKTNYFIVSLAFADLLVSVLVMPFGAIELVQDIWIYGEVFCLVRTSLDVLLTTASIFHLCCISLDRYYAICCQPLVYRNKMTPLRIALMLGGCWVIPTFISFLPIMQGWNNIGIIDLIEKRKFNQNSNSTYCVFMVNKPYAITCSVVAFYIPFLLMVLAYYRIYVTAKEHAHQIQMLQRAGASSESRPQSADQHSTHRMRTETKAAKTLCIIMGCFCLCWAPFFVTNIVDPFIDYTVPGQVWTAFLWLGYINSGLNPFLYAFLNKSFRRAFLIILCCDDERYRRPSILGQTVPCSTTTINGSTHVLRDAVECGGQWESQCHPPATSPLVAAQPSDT
- PROTOCOL DETAILS: Radioligand binding, 5-HT4 receptor
- CONDITIONS USED: Table 8; Ki h5HT4 divided by Ki hGAL3
- Protocol: Other 5-HT Receptors: Other serotonin receptor binding assays were performed according to published methods: rat 5HT2C receptor (Julius et al., 1988); and 5-HT6 (Monsma, et al., 1993). […] Binding data were analyzed using nonlinear regression and statistical techniques available in the GraphPAD Prism package (San Diego, CA). […]

Example results:
O=C1C(=Nc2ccc(C(F)(F)F)cc2)c2ccccc2N1c1ccccc1 [Example 95] ... >100
Cc1ccc(Nc2cc(N3CCCCC3)nc(N(C)CCc3ccccc3)n2)cc1 [Example 22] ... >30
O=C1C(=Nc2cccc(Cl)c2)c2ccccc2N1c1ccccc1 [Example 94] ... >30
O=C1C(=Nc2ccc(Cl)cc2)c2ccccc2N1c1ccccc1 [Example 97] ... >30

Now for another entry.
Lookup: Form entry - test system: human 5HT4 receptor (Homo sapiens); read-out: selectivity ratio h5HT4; molecule: CN(CCc1c[nH]c2ccccc12)c1nc(Nc2ccc(F)c(F)c2)cc(N2CCCCC2)n1 [Example 15]
Found: >30
